- Run Description: BET inhibitor-based combinations targeting novel dependencies in MECOM-rearranged (r) AML: OCI-AML3 cell line (AID 2202232); also: nearly all actives have a fitted effect of over 35% in size; also: potency is read from the fitted curve at half-maximal effect
- Assay Setup: CellTiter-Glo luminescence, 48 h; OCI-AML3 viability; series mostly up to 46 µM
Inconclusive results are not listed. The source made the active and inactive calls. Calls follow the shape of the dose curve; as a rule, active = well fitted inhibition curve with a large enough effect; inconclusive = small, poorly fitted or top-dose-only effect; inactive = no such curve, though single readings can be large or run the other way.
Measure: Potency

// known answers, use as guide
| Compound | Result Value |
| --- | --- |
| CCn1cc(C(=O)O)c(=O)c2cc(F)c(N3CCNC(C)C3)c(F)c21 (stereo not drawn) | inactive |
| Cc1nc(Nc2ncc(C(=O)Nc3c(C)cccc3Cl)s2)cc(N2CCN(CCO)CC2)n1 | 13.2 µM (active) |
| O=c1c(O)c(-c2ccc(O)c(O)c2)oc2cc(O)cc(O)c12 | inactive |
| CC(C)OC(=O)C1=CN(C(=O)c2ccc(F)c(F)c2)CC(C)(C)c2c1[nH]c1ccccc21 | inactive |
| c1cc(-c2cnn3cc(-c4ccc(OCCN5CCCCC5)cc4)cnc23)ccn1 | 8.33 µM (active) |

q: Can you look up the measured Potency of `C=C(C)[C@@H]1CC[C@]2(C)CC[C@]3(C)[C@H](CC[C@@H]4[C@@]5(C)CC[C@H](O)C(C)(C)[C@H]5CC[C@]43C)[C@@H]12` for me?
a: inactive

q: What does the data say about its Potency? Entry: `O=c1cc(-c2ccccc2)oc2cc(O)c(O)c(O)c12`
a: 7.42 µM (active)

q: For the compound `CC(=O)SC[C@@H](C)C(=O)N1CCC[C@H]1C(=O)N[C@@H](Cc1ccccc1)C(=O)O` , what Potency is on record?
a: inactive

q: # input compound: `Cc1cnc(-c2cc(N3CCN(C(=O)CCS(C)(=O)=O)CC3)ncc2Cl)c(C)c1` ; wanted: its Potency
a: inactive
